Let's look at some molecules and their measured inhibition.
# studyTarget: Tyrosine-protein kinase Tec (Homo sapiens)
# testSettings: at 0.1 µM
# Description: GSK_PKIS: TEC mean inhibition at 0.1 uM [Nanosyn]
Write it as a number; the unit % goes unstated.

molecule	inhibition / %
Fc1cccc(COc2ccc(Nc3ncnc4sc(-c5cccs5)cc34)cc2Cl)c1	-0.73
O=C1NC(=O)C(c2ccccc2Cl)=C1Nc1cccc(O)c1	3.78
COc1cc2ncn(-c3cc(OCc4ccccc4Cl)c(C(N)=O)s3)c2cc1OC	1.67
CC1=C(C(=O)Nc2ccc3[nH]ncc3c2)C(c2ccc(F)cc2)NC(=O)N1 (stereo not given)	2.11

*Q* Fill in: inhibition of CCn1c(-c2nonc2N)nc2c(C#CC(C)(C)O)nc(OC[C@@H](N)c3ccccc3)cc21 is ___
*A* 1.68

*Q* Fill in: inhibition of CCc1cccc(NC(=O)Nc2ccc(Oc3ccc4nc(NC(=O)OC)[nH]c4c3)cc2)c1 is ___
*A* 2.07

*Q* Fill in: inhibition of CCn1c(-c2nonc2N)nc2cnc(Oc3cccc(NC(=O)c4ccc(OCCN5CCOCC5)cc4)c3)cc21 is ___
*A* 3.35

*Q* Fill in: inhibition of COc1ccc(-c2ccncc2)cc1C(N)=O is ___
*A* 6.14

*Q* Fill in: inhibition of COc1cc2ncn(-c3cc(O[C@@H](C)c4ccccc4Cl)c(C(N)=O)s3)c2cc1OC is ___
*A* 1.7

*Q* Fill in: inhibition of COc1cc(C=NNc2ncnc3c2cnn3-c2ccccc2)ccc1O is ___
*A* 4.48

---

# studyTarget: Ribosomal protein S6 kinase alpha-2 (Homo sapiens)
# testSettings: at 0.1 µM
Let's look at some molecules and their measured inhibition.
Write it as a number; the unit % goes unstated.

smi	inhibition / %
CS(=O)(=O)CCNCc1ccc(-c2ccc3ncnc(Nc4ccc(OCc5cccc(F)c5)c(C(F)(F)F)c4)c3c2)o1	2.39
COc1cc(C=NNc2ncnc3c2cnn3-c2ccccc2)ccc1O	2.26
Fc1cccc(COc2ccc(Nc3ncnc4cc(-c5ccc[nH]5)sc34)cc2Cl)c1	1.77
O=C1NC(=O)C(c2ccc(Cl)cc2)=C1Nc1ccc(Cl)c(C(=O)O)c1	-1.33
NS(=O)(=O)c1ccc(N/N=C2\C(=O)Nc3ccc(C(=O)NCCc4c[nH]cn4)cc32)cc1	5.36
CCn1c(-c2nonc2N)nc2c(C#CC(C)(C)O)nc(OC[C@@H](N)c3ccccc3)cc21	0.98
CC(C)=Cc1cccc2c1/C(=N/Nc1ccc(S(N)(=O)=O)cc1)C(=O)N2	2.5
[O-][S+]1CCN(Cc2ccc(-c3ccc4ncnc(Nc5ccc(OCc6ccccc6)c(F)c5)c4c3)o2)CC1	1.48

Proceeding to the next molecule to report its inhibition.
*Q* Request body: readout inhibition, system Ribosomal protein S6 kinase alpha-2 (Homo sapiens), query COc1cc2ncn(-c3cc(O[C@H](C)c4ccccc4Cl)c(C(N)=O)s3)c2cc1OC . Return the value.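 Also: reported value is the mean percent inhibition of RSK3, from the GSK PKIS screening panel.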
*A* 2.9

---

Let's look at some molecules and their measured inhibition.
# studyTarget: Inhibitor of nuclear factor kappa-B kinase subunit epsilon (Homo sapiens);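 also: reported values are averaged percent inhibition figures against human IKKε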
# testSettings: at 1 µM
Write it as a number; the unit % goes unstated.

Example cases with answers are listed next.
molecule	studyTarget	inhibition [%]
COc1ccc2cc(-c3c(-c4ccncc4)nc(-c4ccc([S+](C)[O-])cc4)n3C)ccc2c1 (stereo not given)	Inhibitor of nuclear factor kappa-B kinase subunit epsilon (Homo sapiens)	4.64
NS(=O)(=O)c1ccc(N/N=C2\C(=O)Nc3ccc(C(=O)NCCc4c[nH]cn4)cc32)cc1	Inhibitor of nuclear factor kappa-B kinase subunit epsilon (Homo sapiens)	19
CC(C)=Cc1cccc2c1/C(=N/Nc1ccc(S(N)(=O)=O)cc1)C(=O)N2	Inhibitor of nuclear factor kappa-B kinase subunit epsilon (Homo sapiens)	21.9

*Q* Fill in: inhibition of COc1ccc(-c2coc3ncnc(N)c23)cc1 is ___
*A* 4.6

*Q* Fill in: inhibition of Nc1nc(-c2ccccn2)c(-c2ccc3ncccc3n2)s1 is ___
*A* 5.46

*Q* Fill in: inhibition of COc1ccc(-c2nn3ncccc3c2-c2ccnc(Nc3ccc(Cl)c(C(F)(F)F)c3)n2)cc1 is ___
*A* 5.7

*Q* Fill in: inhibition of CS(=O)(=O)Nc1ccc(N/C=C2\C(=O)Nc3ccccc32)cc1 is ___
*A* 7.71

*Q* Fill in: inhibition of CCn1c(-c2nonc2N)nc2c(C#CC(C)(C)O)nc(OC[C@@H](N)c3ccccc3)cc21 is ___
*A* 34.9

*Q* Fill in: inhibition of CCn1c(-c2nonc2N)nc2ccncc21 is ___
*A* 0.86

*Q* Fill in: inhibition of COc1cc2ncn(-c3cc(O[C@H](C)c4ccccc4Cl)c(C(N)=O)s3)c2cc1OC is ___
*A* 6.91

---

# studyTarget: Tyrosine-protein kinase ITK/TSK (Homo sapiens) (UniProt Q08881);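 also: mean percent inhibition of ITK from the GSK PKIS screen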
# Sequence (whole entry): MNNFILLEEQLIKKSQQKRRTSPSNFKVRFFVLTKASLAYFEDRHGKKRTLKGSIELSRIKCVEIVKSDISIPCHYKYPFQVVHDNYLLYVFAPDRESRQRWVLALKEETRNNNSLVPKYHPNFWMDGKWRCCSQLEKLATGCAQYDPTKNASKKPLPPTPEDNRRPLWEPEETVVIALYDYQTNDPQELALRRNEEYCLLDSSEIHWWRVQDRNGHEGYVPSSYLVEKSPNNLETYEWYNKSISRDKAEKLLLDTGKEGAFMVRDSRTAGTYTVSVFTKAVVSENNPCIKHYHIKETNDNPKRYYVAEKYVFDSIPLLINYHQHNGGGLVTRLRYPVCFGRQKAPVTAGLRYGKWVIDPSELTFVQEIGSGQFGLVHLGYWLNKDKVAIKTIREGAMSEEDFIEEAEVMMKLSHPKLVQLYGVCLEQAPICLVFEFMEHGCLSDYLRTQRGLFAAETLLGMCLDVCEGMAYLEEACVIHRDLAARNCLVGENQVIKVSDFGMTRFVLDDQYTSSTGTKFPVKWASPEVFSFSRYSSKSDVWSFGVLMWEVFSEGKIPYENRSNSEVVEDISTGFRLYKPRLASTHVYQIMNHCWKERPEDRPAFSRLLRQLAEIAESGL
# testSettings: at 0.1 µM
Let's look at some molecules and their measured inhibition.
Write it as a number; the unit % goes unstated.

molecule	outputUnit	assayValue
Cc1nn(C)c2cc(N(C)c3ccnc(Nc4cccc(S(N)(=O)=O)c4)n3)ccc12	%	1.53
COC(=O)Nc1nc2cc(Oc3ccc(NC(=O)Nc4cccc(C(=O)O)c4)cc3)ccc2[nH]1	%	-2.99
CS(=O)(=O)Nc1ccc(N/C=C2\C(=O)Nc3ccccc32)cc1	%	-0.24
Cc1ccc(NC(=O)c2ccnc(N3CCCC3)c2)cc1-c1ccc(C(=O)NCC2CC2)cc1	%	-1.68
CCn1c(-c2nonc2N)nc2cncc(C(=O)N3CC[C@H](N)C3)c21	%	0.55

*Q* Fill in: inhibition of O=C1Nc2ccc(C(=O)c3ccco3)cc2C1=Cc1cc(Cl)c(O)c(Cl)c1 is ___
*A* 1.31

*Q* Fill in: inhibition of COc1cc2ncn(-c3cc(OCc4ccccc4C(F)(F)F)c(C(N)=O)s3)c2cc1OC is ___
*A* -3.84

*Q* Fill in: inhibition of CCn1c(-c2nonc2N)nc2cnc(Oc3cccc(NC(=O)c4ccc(OCCN5CCOCC5)cc4)c3)cc21 is ___
*A* 0.81

*Q* Fill in: inhibition of Nc1ncnc2occ(-c3ccc(NC(=O)Nc4cccc(C(F)(F)F)c4)cc3)c12 is ___
*A* 0.99

*Q* Fill in: inhibition of COc1ccc2cc(-c3c(-c4ccncc4)nc(-c4ccc([S+](C)[O-])cc4)n3C)ccc2c1 (stereo not given) is ___
*A* 1.06

*Q* Fill in: inhibition of Nc1ncnc2occ(-c3ccc(NC(=O)Nc4cc(C(F)(F)F)cc(C(F)(F)F)c4)cc3)c12 is ___
*A* 1.65

---

# studyTarget: Tyrosine-protein kinase JAK2 (Homo sapiens);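 also: mean JAK2 inhibition from the GSK PKIS screen, compounds tested at 1 µM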
# testSettings: at 1 µM
Let's look at some molecules and their measured inhibition.
Write it as a number; the unit % goes unstated.

smi	inhibition, %
COc1ccc(COc2ccc(Cc3cnc(N)nc3N)cc2OC)cc1	4.19
CCn1c(-c2nonc2N)nc2ccncc21	0.91
COc1ccccc1Nc1ncc(-c2ccccc2)o1	-0.51
NC(=O)c1ccc(-c2nc(-c3ccccn3)c(-c3ccc4c(c3)OCO4)[nH]2)cc1	1.92
CCCN1CCC(Oc2cc(Nc3nc(Nc4cccc(F)c4C(N)=O)c4cc[nH]c4n3)c(OC)cc2Cl)CC1	1.42

*Q* Fill in: inhibition of O=C1NC(=O)C(c2ccccc2Cl)=C1Nc1cccc(O)c1 is ___
*A* 4.56

*Q* Fill in: inhibition of O=C(Nc1n[nH]c2nc(-c3ccco3)c(Br)cc12)C1CC1 is ___
*A* 1.59

*Q* Fill in: inhibition of Cc1nn(C)c2cc(N(C)c3ccnc(Nc4cccc(S(N)(=O)=O)c4)n3)ccc12 is ___
*A* 59.5

*Q* Fill in: inhibition of CN(C)c1cc2c(Nc3ccc4nc(Cc5ccccc5)[nH]c4c3)ncnc2cn1 is ___
*A* 1.44

*Q* Fill in: inhibition of COc1cc2c(cc1Nc1nc(N3CCc4ccccc43)c3cc[nH]c3n1)N(C(=O)CN(C)C)CC2 is ___
*A* 0.18

Data origin, for the record: ChEMBL document CHEMBL1961873
